Data provenance is the RNAGym collection of RNA variant scans (doi:10.1093/molbev/msab373).

B1: Azoarcus group I ribozyme (parent)
chain: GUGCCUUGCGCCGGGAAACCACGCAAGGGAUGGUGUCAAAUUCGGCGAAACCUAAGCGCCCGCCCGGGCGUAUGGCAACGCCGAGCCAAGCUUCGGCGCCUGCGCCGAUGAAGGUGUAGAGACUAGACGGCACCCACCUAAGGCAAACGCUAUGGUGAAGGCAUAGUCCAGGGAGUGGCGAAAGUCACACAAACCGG

Variants of: B1
Test: reverse-splicing fitness (ratio to wild type); higher = more active; in vitro selection; Mg2+ level not given
Decision: reverse-splicing fitness >= 0.01 yields fulfilled, all other cases yield not fulfilled.

C82A A120C A145U C150A C169A U176G; not fulfilled
C82G A111C A120G A145U C150G C169A; not fulfilled

Exam item: Hi, just wondering whether C82U A111G A120G C150G U176C shows reverse-splicing fitness of 0.01 or higher.
Marked response: not fulfilled

Exam item: Is reverse-splicing fitness for C82U A111C A120C A145G C150U C169G U176G at or above 0.01?
Marked response: not fulfilled

Exam item: Test whether the variant C82U A111C A120C C150G C169A records reverse-splicing fitness of 0.01 or higher.
Marked response: not fulfilled
